target: DNA gyrase from E. coli (Escherichia coli, UniProt P0AES4+P0AES6); construct: purchased Inspiralis; assay: Inhibitory activities on E. coli DNA gyrase (Inspiralis assay); assay type: biochemical
Sequence (P0AES4 whole entry, one chain of several): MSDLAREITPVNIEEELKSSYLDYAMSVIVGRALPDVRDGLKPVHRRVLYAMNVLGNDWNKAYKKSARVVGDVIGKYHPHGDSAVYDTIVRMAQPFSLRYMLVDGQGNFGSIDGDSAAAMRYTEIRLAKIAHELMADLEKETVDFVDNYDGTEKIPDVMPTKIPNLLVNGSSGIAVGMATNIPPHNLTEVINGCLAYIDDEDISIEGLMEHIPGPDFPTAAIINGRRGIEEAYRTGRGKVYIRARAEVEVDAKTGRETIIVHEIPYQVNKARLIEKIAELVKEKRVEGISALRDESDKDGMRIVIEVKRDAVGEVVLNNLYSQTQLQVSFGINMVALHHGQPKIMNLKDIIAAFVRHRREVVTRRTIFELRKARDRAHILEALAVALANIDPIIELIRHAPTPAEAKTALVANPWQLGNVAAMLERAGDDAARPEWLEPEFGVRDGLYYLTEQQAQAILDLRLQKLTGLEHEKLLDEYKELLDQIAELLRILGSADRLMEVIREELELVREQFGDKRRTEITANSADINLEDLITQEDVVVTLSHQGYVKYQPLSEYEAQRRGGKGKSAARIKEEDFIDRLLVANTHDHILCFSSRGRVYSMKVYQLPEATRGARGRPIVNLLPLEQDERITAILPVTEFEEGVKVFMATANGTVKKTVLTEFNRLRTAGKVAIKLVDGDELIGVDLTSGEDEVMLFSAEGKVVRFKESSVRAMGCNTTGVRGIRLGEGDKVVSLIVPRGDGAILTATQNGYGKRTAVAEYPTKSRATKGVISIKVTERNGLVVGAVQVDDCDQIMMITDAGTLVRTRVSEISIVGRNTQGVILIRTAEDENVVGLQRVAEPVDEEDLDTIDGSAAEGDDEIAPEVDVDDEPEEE
recorded.endpoint: IC50 (µM)

smiles.entry: CNc1cc(F)cc2cc3[nH]c(-c4ccc(C(=O)O)cc4CN(C)C4CCCCC4)cc3nc12
target.of.assay: DNA gyrase from E. coli (Escherichia coli, UniProt P0AES4+P0AES6)
recorded.endpoint: IC50
units.label: µM
obs.value: 0.032
